Target: Protein arginine N-methyltransferase 1 (Homo sapiens)
Run description: human PRMT1 activity-probe blockers – biochemical, fluorescence polarization, primary screen (AID 652257)
Experimental conditions: recombinant PRMT1, activity-based probe fluorescence polarization; at 2.79 µM; hits give high values
Screen size: about 370,000 compounds; about 4,800 (1.3%) were called active. For the sample, actives were picked, then their nearest neighbours and some compounds at random.
For each record, write down the corresponding inhibition.
Give bare numbers, in %.

# count of solved cases: 5
>  <Molecule>
COc1ccc2c(c1)[C@@]13CCCCC1[C@@H](C2)NCC3 (some centres undefined)

>  <Unit spec>
%

>  <inhibition>
0.98

$$$$
>  <Molecule>
O=C1NC(=O)N(Cc2ccco2)C(=O)/C1=C\c1ccc(-c2ccc(F)cc2)o1

>  <Unit spec>
%

>  <inhibition>
25

$$$$
>  <Molecule>
CCOC(=O)c1c(-c2ccccc2)oc2ccc(OC(=O)N(C)C)cc12

>  <Unit spec>
%

>  <inhibition>
2.78

$$$$
>  <Molecule>
Cc1cc(/C=C2/C(=O)NC(=O)N(Cc3ccco3)C2=O)c(C)n1-c1ccc(C(=O)O)cc1

>  <Unit spec>
%

>  <inhibition>
42

$$$$
>  <Molecule>
O=C(O)COc1ccccc1/C=C1\C(=O)NC(=O)N(CCC2=CCCCC2)C1=O

>  <Unit spec>
%

>  <inhibition>
21.6

$$$$

# map each molecule to its inhibition
1. Cc1c(Oc2cc(NN3CCCCC3)c([N+](=O)[O-])cc2[N+](=O)[O-])cccc1[N+](=O)[O-]
2. CC1C2Cn3c(nc4ccccc43)C1N(C)O2 (centres undefined)
3. COc1cc2nc(N3CCN(C(=O)[C@@H]4CCCO4)CC3)nc(N)c2cc1OC
4. CC(C(=O)Nc1ccc(Cl)cc1Cl)N1CC=C(c2ccccc2)CC1 (centres undefined)

OUTPUT:
1. 0.33
2. 1
3. -2.88
4. -2.84

----------
Target: Protein arginine N-methyltransferase 1 (Homo sapiens)
Run description: human PRMT1 activity-probe blockers – biochemical, fluorescence polarization, primary screen (AID 652257)
Experimental conditions: recombinant PRMT1, activity-based probe fluorescence polarization; at 2.79 µM; hits give high values
Hit rate of the full screen: of about 370,000 compounds, about 4,800 (1.3%) were called active. This is one part of a sample in which actives are shown more often than they occur.
Recorded endpoint: inhibition (%)
Answers are plain numbers, in %.

Below, each entry is followed by its recorded inhibition result.
>  <Compound>
COc1ccccc1N=Nc1c(O)[nH]c(=S)[nH]c1=O

>  <Quantitative result>
-3.43

$$$$
>  <Compound>
CO[C@H]([C@H](C)/C=C/N(C)C=O)[C@@H](C)C(=O)CC[C@H](C)[C@H](O)[C@H](C)[C@H]1OC(=O)/C=C/C(C)=C/[C@H](O)[C@H](OC)C[C@@H]2C=CC[C@@H](C[C@H](OC)[C@@]3(CO3)[C@@H](OC)C[C@@H](OC)[C@@H]1C)O2

>  <Quantitative result>
1.29

$$$$
>  <Compound>
O=S(=O)(c1ccccc1)N1CCC2CCNC2C1 (centres undefined)

>  <Quantitative result>
-4.47

$$$$
>  <Compound>
Cc1ccc2c(c1)=C/C(=C\c1c(O)[nH]c(=O)[nH]c1=O)C(=O)N=2

>  <Quantitative result>
7.2

$$$$
>  <Compound>
CC(=NCC1CCCO1)c1c(O)n(-c2ccccc2)c(=O)[nH]c1=O (centres undefined)

>  <Quantitative result>
-2.12

$$$$

Kindly give each listed record's inhibition.
1. Clc1ccc([C@@H]2CC3CCC2N3)cn1 (some centres undefined)
2. CCC(=NCCc1ccccc1)c1c(O)n(C2CCCCC2)c(=O)[nH]c1=O
3. Cc1cc(N2CCNC[C@@H]2C)ccc1N1CC[C@H](O)C1
4. CC(C)c1ccc(O)c(CN2CCN(c3ccccc3)CC2)c1

OUTPUT:
[-1.63, -0.77, 49.5, -1.49]

Where do the numbers come from? From PubChem BioAssay AID652257.
